- ASSAY_PROCEDURE: qHTS Primary assay for Inhibitors of Plasmodium falciparum Dd2 growth in vitro; note: nearly all actives have a fitted effect of over 65% in size; note: potency is the fitted concentration of half-maximal effect
- ASSAY_SETUP: P. falciparum Dd2 growth, SYBR Green, 72 h; series mostly up to 28.9 µM
About 5,300 (4.4%) of roughly 120,000 compounds were called active. Roughly 22% stayed inconclusive and do not appear here. Only a selection was taken, and actives are over-represented in it overall.
PARAMETER: Potency

In the examples that follow, each entry is paired with its recorded Potency.
MOLECULE | READOUT_VALUE
CCC(CC)C(=O)NC[C@H]1O[C@H](Cc2cc(-c3ccc(F)cc3)on2)CC[C@@H]1O | inactive
Cc1cc2nc3n(c(=O)c2n1CC(=O)NC(C)CCc1ccccc1)CCCC3 (stereo not given) | inactive
Cc1ccccc1N(C)C1CN(Cc2cccc3ccccc23)C1 | 10 µM (active)
O=C(Nc1ccccc1)[C@H]1CN2CCC1C[C@@H]2Cn1cc(CO)nn1 (stereo not given in full) | inactive
Cc1ccc2c(C(=O)O)cc(NC(=O)C(C)C)cc2n1 | inactive

IN: Dear colleague, please send me the reported Potency for COC(=O)CCNC(=O)C1c2ccccc2C(=O)N(CC(C)C)C12CCCC2 (stereo not given) when you can.
OUT: inactive

IN: Dear colleague, please send me the reported Potency for O=[S+]1([O-])NCC2(CCCN(Cc3ccncc3)C2)Oc2ncccc21 (stereo not given) when you can.
OUT: inactive

IN: Dear colleague, please send me the reported Potency for COc1ccc(CN2C(=O)CO[C@H]3CN(C(=O)C4CC4)C[C@H]32)cc1 when you can.
OUT: inactive

IN: Dear colleague, please send me the reported Potency for c1ccc2c(c1)CCN2C1CN(Cc2cccc3ccccc23)C1 when you can.
OUT: inactive

IN: Dear colleague, please send me the reported Potency for COCCN1C(=O)c2ccccc2C(C(=O)NC2CCCCCC2)C12CCCCC2 (stereo not given) when you can.
OUT: inactive

IN: Dear colleague, please send me the reported Potency for Cn1cnc(C(=O)N2CCC(OC3CCN(S(C)(=O)=O)CC3)CC2)c1 when you can.
OUT: inactive

IN: Dear colleague, please send me the reported Potency for CCn1nccc1C(=O)N1CCn2nnc(CCC(=O)NCc3ccccc3)c2C1 when you can.
OUT: inactive

IN: Dear colleague, please send me the reported Potency for COCc1cc(C[C@@H]2CC[C@H](O)[C@@H](CN(CC3CCCCC3)CC3CCCCC3)O2)no1 when you can.
OUT: 3.16 µM (active)

IN: Dear colleague, please send me the reported Potency for Clc1ccc(-c2nnc3n2CCN(Cc2cccc4ccccc24)C3)cc1 when you can.
OUT: inactive

IN: Dear colleague, please send me the reported Potency for CCOc1cc(=O)n2c(c1C(=O)Nc1cc(Cl)ccc1F)CCCC2 when you can.
OUT: inactive
